protocol: solvent given as SMILES
test_context: in ClCCl
outcome_measure: emission maximum (nm)

- molecule: "O=C1c2ccccc2-c2c(-c3ccccc3O)[nH]c(=O)n21"
  numeric_value: 477
- molecule: "c1ccc(-c2nc3c(c4c2-c2ccccc2CC4)-c2ccccc2CC3)cc1"
  numeric_value: 361
- molecule: "COC(=O)c1c(-c2cc3ccccc3oc2=O)nn(-c2ccc(Br)cc2)c1C(=O)OC"
  numeric_value: 401
- molecule: "COc1ccc(-c2c3ccccc3c(C#Cc3ccccc3)c3cc4cc(C)sc4cc23)cc1"
  numeric_value: 504
- molecule: "CCOC(=O)c1c(-c2cc3ccc(OC)cc3oc2=O)nn(-c2cccc(Cl)c2)c1C(=O)OCC"
  numeric_value: 422
- molecule: "N#Cc1cc(/C=C/c2ccc(N(c3ccccc3)c3ccccc3)cc2)ccc1-c1ccc(/C=C/c2ccc(N(c3ccccc3)c3ccccc3)cc2)cc1C#N"
  numeric_value: 472
- molecule: "COC(=O)c1[nH]c(-c2ccc(OC)cc2)c2nnc3ccc(OC)cc3c12"
  numeric_value: 504
- molecule: "COc1cc(C2=CC3=C(c4c(C)cc(C)cc4C)c4cc(-c5cc(OC)c(OC)c(OC)c5)c(-c5cc(OC)c(OC)c(OC)c5)n4[B-](F)(F)[N+]3=C2c2cc(OC)c(OC)c(OC)c2)cc(OC)c1OC"
  numeric_value: 651

###

protocol: solvent given as SMILES
test_context: in CN(C)C=O
outcome_measure: emission maximum (nm)

- compound: "CCCCC1(c2ccccc2)Nc2c(-c3ccc(N(C)c4ccccc4)cc3)ccc(-c3ccc(N(C)c4ccccc4)cc3)c2N=C1c1ccccc1 (configuration not stated)"
  numeric_value: 603
- compound: "COc1ccc2c(=O)c3c([nH]c2c1)-c1cc(Cl)ccc1NC3(C)C"
  numeric_value: 509
- compound: "CN(C)c1ccc2nc3c(cc2c1)c(-c1ccccc1)nn3-c1ccccc1"
  numeric_value: 566.89
- compound: "Cc1c2ccncc2c(C)c2c1[nH]c1ccccc12"
  numeric_value: 425
- compound: "CC1=CC(C)=[N+]2C1=Cc1c3ccccc3c(C#Cc3ccsc3)n1[B-]2(F)F"
  numeric_value: 623
- compound: "CCC/N=C/c1cc2ccc(N(C)C)cc2cc1OC"
  numeric_value: 449
- compound: "O=C(/C=C/c1ccc(O)c(O)c1)O[C@H](Cc1ccc(O)c(O)c1)C(=O)O"
  numeric_value: 420
- compound: "Cc1cc(-c2ccc(-n3c4ccccc4c4ccccc43)cc2)nc(-c2ccc(-n3c4ccccc4c4ccccc43)cc2)n1"
  numeric_value: 461
- compound: "Nc1c(-c2nn([C@H]3C[C@H](O)[C@@H](CO)O3)c3ncnc(N)c23)ccc2ccccc12"
  numeric_value: 452
- compound: "O=C(N/N=C/c1ccccc1O)c1ccccc1"
  numeric_value: 458
- compound: "O=C1CC(c2cccc([N+](=O)[O-])c2)c2c(c3ccccc3c3nc4ccccc4nc23)O1 (configuration not stated)"
  numeric_value: 443
- compound: "CC1=CC(C)=[N+]2C1=C(c1c3ccccc3c(-c3ccccc3)c3ccccc13)c1c(C)cc(C)n1[B-]2(F)F"
  numeric_value: 515
- compound: "O=Cc1cc(O)ccc1O"
  numeric_value: 440
- compound: "CCCCCCCCN1c2ccccc2Sc2cc(/C=C/c3ccc(N(c4ccc(/C=C/c5ccc6c(c5)Sc5ccccc5N6CCCCCCCC)cc4)c4ccc(/C=C/c5ccc(/C=C/c6ccc(N(c7ccc(/C=C/c8ccc(N(c9ccccc9)c9ccccc9)cc8)cc7)c7ccc(/C=C/c8ccc(N(c9ccccc9)c9ccccc9)cc8)cc7)cc6)c6nsnc56)cc4)cc3)ccc21"
  numeric_value: 749
- compound: "Cc1n[nH]c2c1C(c1ccc([N+](=O)[O-])cc1)C(C#N)=C(N)O2 (configuration not stated)"
  numeric_value: 405
- compound: "CCCCCCCCC1(CCCCCCCC)c2cc(C=O)ccc2-c2ccc(/C=C/c3ccc(N(c4ccccc4)c4ccccc4)cc3)cc21"
  numeric_value: 490
- compound: "CCCCCCOc1ccc(C#Cc2ccc(-c3ccc(-c4ccc(C#Cc5ccc(OCCCCCC)c(OCCCCCC)c5)s4)c4nsnc34)s2)cc1OCCCCCC"
  numeric_value: 666

###

protocol: solvent given as SMILES
test_context: in CCCCCC
outcome_measure: emission maximum (nm)

Check out these entries, answers already filled in.
- compound: "CC1=N/C(=C\\c2cccc(N(C)C)c2)C(=O)N1CCO"
  emission maximum [nm]: 506
- compound: "CCCCCCCCCCCCC1(CCCCCCCCCCCC)c2cc(-c3ccc(C=C4C(=O)c5ccccc5C4=O)cc3)ccc2-c2ccc(-c3ccc(C=C4C(=O)c5ccccc5C4=O)cc3)cc21"
  emission maximum [nm]: 463
- compound: "C(=C\\c1cccnc1)/c1ccc(N(c2ccccc2)c2ccccc2)cc1"
  emission maximum [nm]: 403
- compound: "CC(C)(C)c1ccc2ccc3c(C(C)(C)C)ccc4ccc1c2c43"
  emission maximum [nm]: 379
- compound: "O=S(=O)(c1ccccc1)c1ccc(-c2ccc3c4ccc(-c5ccc(S(=O)(=O)c6ccccc6)cc5)cc4n(-c4ccccc4)c3c2)cc1"
  emission maximum [nm]: 409

(P) COc1ccc2n1[B-](F)(F)[N+]1=C(SC#N)C=CC1=C2c1ccccc1
(Q) C/C=C/c1ccc(OC)cc1
Challenge: For the two items P and Q , which reports the higher emission maximum value? Response format: the label of the selected entry.
Response given: P

###

protocol: solvent given as SMILES
test_context: in C1CCOC1
outcome_measure: emission maximum (nm)

- molecule: "Cc1c2ccncc2c(C)c2c1[nH]c1ccccc12"
  outcome_measure: "emission maximum"
  unit_string: "nm"
  numeric_value: 413
- molecule: "N#Cc1c(N2CCCCC2)cc(-c2cccc3ccccc23)c2c1CCc1ccccc1-2"
  outcome_measure: "emission maximum"
  unit_string: "nm"
  numeric_value: 465
- molecule: "CN(C)c1ccc2nc3c(cc2c1)c(-c1ccccc1)nn3-c1ccccc1"
  outcome_measure: "emission maximum"
  unit_string: "nm"
  numeric_value: 534.19
- molecule: "C(=C\\c1c2ccccc2cc2ccccc12)/c1c2ccccc2cc2ccccc12"
  outcome_measure: "emission maximum"
  unit_string: "nm"
  numeric_value: 650

(I) CCCCCCCCCCn1c(-c2cc(-c3nc4ccc(C)cc4n3CCCCCCCCCC)cc(-c3nc4ccc(C)cc4n3CCCCCCCCCC)c2)nc2ccc(C)cc21
(II) COc1cc2c(cc1-c1ccc(N(c3ccccc3)c3ccccc3)cc1)Cc1c3c(c4c(c1-2)-c1cc(OC)c(-c2ccc(N(c5ccccc5)c5ccccc5)cc2)cc1C4)C(=O)N(CCC(C)C)C3=O
Challenge: Decide: I or II , by lowest recorded emission maximum. Please reply using the label of the selected record.
Response given: I

###

protocol: solvent given as SMILES
test_context: in C1CCCCC1
outcome_measure: emission maximum (nm)

- molecule: "Cc1ccc(N(c2ccc(C)cc2)c2ccc3c4cccc5c(N(c6ccc(C)cc6)c6ccc(C)cc6)ccc(c6cccc2c63)c54)cc1"
  emission maximum / nm: 546
- molecule: "CN(C)c1ccc2nc(-c3ccc(C=C(C#N)C#N)cc3)sc2c1"
  emission maximum / nm: 526
- molecule: "C(C#Cc1ccc2ccc3cccc4ccc1c2c34)#Cc1cccc2ccccc12"
  emission maximum / nm: 411
- molecule: "c1ccc2cc(-n3cnc4ccccc43)ccc2c1"
  emission maximum / nm: 374
- molecule: "B1C=Cc2ccc3ccccc3c2N1"
  emission maximum / nm: 371
- molecule: "CCOC(=O)COc1ccc(C(c2c(C)[nH]c3ccccc23)c2c(C)[nH]c3ccccc23)cc1OC"
  emission maximum / nm: 329

(P) C(=C\c1nc2ccccc2o1)/c1ccccc1
(Q) CC1=[N+]2C(=C(c3ccc(Br)cc3)c3ccc(C)n3[B-]2(F)F)C=C1c1cc2n(c1)[B-](F)(F)[N+]1=CC=CC1=C2c1c(C)cc(C)cc1C
Challenge: For this pair, P and Q , which shows a numerically higher emission maximum? API: response body contains the label of the selected item.
Response given: Q
(Q: 642 nm, P: 380 nm)

###

protocol: solvent given as SMILES
test_context: in ClC(Cl)Cl
outcome_measure: emission maximum (nm)

(a) CCN(CC)c1ccc2cc3c([o+]c2c1)/C(=C/Nc1ccccc1)CCC3
(b) COc1ccc2cc(-c3ccccc3CC#N)c(=O)oc2c1
Challenge: // compare: a vs b , metric emission maximum, want the smaller Field: selected label. Fill in the label of the entry you choose.
Response given: b

###

protocol: solvent given as SMILES
test_context: in C1CCOC1
outcome_measure: emission maximum (nm)

Example entries and their recorded answers appear below.
- molecule: "COc1ccc(C(=O)/C=C/c2ccc(N(C)C)cc2)cc1OC"
  unit_string: "nm"
  emission maximum: 500
- molecule: "C[Si]1(c2ccccc2)C(c2ccc(-n3c4ccccc4c4ccccc43)cc2)=C(c2ccccc2)C(c2ccccc2)=C1c1ccc(-n2c3ccccc3c3ccccc32)cc1"
  unit_string: "nm"
  emission maximum: 520
- molecule: "CCCCCCCCCCCCOc1cc2cc(N(C)C)ccc2cc1C=O"
  unit_string: "nm"
  emission maximum: 448

(P) N#Cc1ccc(N)c(/C=C/C(F)(F)F)c1
(Q) CC1=[N+]2C(=C(c3ccc(C(=C(c4ccccc4)c4ccccc4)c4ccccc4)cc3)c3ccc(/C=C/c4ccc(C(=C(c5ccccc5)c5ccccc5)c5ccccc5)cc4)n3[B-]2(F)F)C=C1
Challenge: Given P and given Q , which shows the smaller recorded emission maximum? Reply with the label of the item you choose.
Response given: P
(P: 409 nm, Q: 612 nm)

(a) CC1(C)c2cc(/C=C/c3nc(/C=C/c4ccc5c(c4)C(C)(C)c4cc(N(c6ccccc6)c6ccccc6)ccc4-5)nc(/C=C/c4ccc5c(c4)C(C)(C)c4cc(N(c6ccccc6)c6ccccc6)ccc4-5)n3)ccc2-c2ccc(N(c3ccccc3)c3ccccc3)cc21
(b) O=Cc1ccc(-c2ccc3c(c2)C(=O)c2cc(-c4ccc(C=O)cc4)ccc2-3)cc1
Challenge: Form: Entry with minimum emission maximum (choose one): a / b Your answer should be the label attached to the chosen record.
Response given: b

(A) F[Si-](F)(c1ccccc1)(c1ccccc1)c1c2ccccc2cc2ccccc12
(B) CCCCCCc1ccsc1-c1cc2c3cc(-c4sccc4CCCCCC)c4nc(C(F)(F)C(F)(F)C(F)(F)F)nc5c(-c6sccc6CCCCCC)cc(c6cc(-c7sccc7CCCCCC)c7nc(C(F)(F)C(F)(F)C(F)(F)F)nc1c7c26)c3c45
Challenge: Which item exceeds the other in emission maximum, A or B ? Choose, then provide that item's label.
Response given: B
